Assay: Stability of the radiopeptides in human blood plasma
Conditions: human, blood plasma
Measured remaining at 24 h, 10 MBq/200 µL, listed per entry.
Parameter Measured: remaining at 24 h, 10 MBq/200 µL (%)

# Compound, Value Reported
measured = [
    ("CC(C)C[C@H](NC(=O)[C@H](Cc1ccc(O)cc1)NC(=O)[C@@H](CCCNC(=N)N)NC(=O)[C@@H](CO)NC(=O)[C@H](Cc1ccccc1)NC(=O)[C@H](CC1CCCCC1)NC(=O)[C@H](CC(=O)O)NC(=O)CN1CCN(CC(=O)O)CCN(CC(=O)O)CCN(CC(=O)O)CC1)C(=O)N[C@@H](Cc1c[nH]c2ccccc12)C(=O)N[C@@H](CO)C(N)=O [[^177Lu]Lu-DOTA-AE105, metal not drawn, reference compound]", 4.5),
    ("CC(C)C[C@H](NC(=O)[C@H](Cc1ccc(O)cc1)NC(=O)[C@@H](CCCNC(=N)N)NC(=O)[C@@H](CO)NC(=O)[C@H](Cc1ccccc1)NC(=O)[C@H](CC1CCCCC1)NC(=O)[C@H](CC(=O)O)NC(=O)[C@H](CCCCNC(=O)CCCc1ccc(I)cc1)NC(=O)[C@@H](N)CCCCNC(=O)CN1CCN(CC(=O)O)CCN(CC(=O)O)CCN(CC(=O)O)CC1)C(=O)N[C@@H](Cc1c[nH]c2ccccc12)C(=O)N[C@@H](CO)C(N)=O [[^177Lu]Lu-uPAR-04, metal not drawn]", 90),
    ("CC(C)C[C@H](NC(=O)[C@H](Cc1ccc(O)cc1)NC(=O)[C@@H](CCCNC(=N)N)NC(=O)[C@@H](CO)NC(=O)[C@H](Cc1ccccc1)NC(=O)[C@H](CC1CCCCC1)NC(=O)[C@H](CC(=O)O)NC(=O)[C@H](CCCCNC(=O)CCCc1ccc(I)cc1)NC(=O)CN1CCN(CC(=O)O)CCN(CC(=O)O)CCN(CC(=O)O)CC1)C(=O)N[C@@H](Cc1c[nH]c2ccccc12)C(=O)N[C@@H](CO)C(N)=O [[^177Lu]Lu-uPAR-01, metal not drawn]", 99),
    ("CC(C)C[C@H](NC(=O)[C@H](Cc1ccc(O)cc1)NC(=O)[C@@H](CCCNC(=N)N)NC(=O)[C@@H](CO)NC(=O)[C@H](Cc1ccccc1)NC(=O)[C@H](CC1CCCCC1)NC(=O)[C@H](CC(=O)O)NC(=O)CCOCCOCCOCCOCCNC(=O)[C@H](CCCCNC(=O)CCCc1ccc(I)cc1)NC(=O)CN1CCN(CC(=O)O)CCN(CC(=O)O)CCN(CC(=O)O)CC1)C(=O)N[C@@H](Cc1c[nH]c2ccccc12)C(=O)N[C@@H](CO)C(N)=O [[^177Lu]Lu-uPAR-05, metal not drawn]", 99),
]

###

Assay: Stability of the radiopeptides in mouse blood plasma
Conditions: mouse, blood plasma
Measured remaining at 1 h, 10 MBq/200 µL, listed per entry.
Parameter Measured: remaining at 1 h, 10 MBq/200 µL (%)

# Compound, Value Reported
records = [
    ("CC(C)C[C@H](NC(=O)[C@H](Cc1ccc(O)cc1)NC(=O)[C@@H](CCCNC(=N)N)NC(=O)[C@@H](CO)NC(=O)[C@H](Cc1ccccc1)NC(=O)[C@H](CC1CCCCC1)NC(=O)[C@H](CC(=O)O)NC(=O)[C@H](CCCCNC(=O)CCCc1ccc(I)cc1)NC(=O)CN1CCN(CC(=O)O)CCN(CC(=O)O)CCN(CC(=O)O)CC1)C(=O)N[C@@H](Cc1c[nH]c2ccccc12)C(=O)N[C@@H](CO)C(N)=O [[^177Lu]Lu-uPAR-01, metal not drawn]", 100),
    ("CC(C)C[C@H](NC(=O)[C@H](Cc1ccc(O)cc1)NC(=O)[C@@H](CCCNC(=N)N)NC(=O)[C@@H](CO)NC(=O)[C@H](Cc1ccccc1)NC(=O)[C@H](CC1CCCCC1)NC(=O)[C@H](CC(=O)O)NC(=O)[C@H](CCCCNC(=O)CCCc1ccc(I)cc1)NC(=O)[C@@H](N)CCCCNC(=O)CN1CCN(CC(=O)O)CCN(CC(=O)O)CCN(CC(=O)O)CC1)C(=O)N[C@@H](Cc1c[nH]c2ccccc12)C(=O)N[C@@H](CO)C(N)=O [[^177Lu]Lu-uPAR-04, metal not drawn]", 101),
    ("CC(C)C[C@H](NC(=O)[C@H](Cc1ccc(O)cc1)NC(=O)[C@@H](CCCNC(=N)N)NC(=O)[C@@H](CO)NC(=O)[C@H](Cc1ccccc1)NC(=O)[C@H](CC1CCCCC1)NC(=O)[C@H](CC(=O)O)NC(=O)CN1CCN(CC(=O)O)CCN(CC(=O)O)CCN(CC(=O)O)CC1)C(=O)N[C@@H](Cc1c[nH]c2ccccc12)C(=O)N[C@@H](CO)C(N)=O [[^177Lu]Lu-DOTA-AE105, metal not drawn, reference compound]", 61),
]
